parameter-measured: melting point

{"columns": ["molecule", "parameter-measured", "result"],
 "data": [
  ["CCCOc1cc2c(cc1C=O)C(C)(C)CCC2(C)C", "melting point", "51 to 52 °C"],
  ["COc1ccc(C(=O)c2ccc(OCc3nc(-c4ccccc4)oc3C)cc2)c(OC(C)C(=O)O)c1 (stereo unspecified)", "melting point", "100 to 102 °C"],
  ["COC(=O)C(=NOC(F)F)c1ccccc1COc1cc(C)ccc1C", "melting point", "61 to 65 °C"],
  ["c1ccc(Sc2c[nH]c3ccccc23)cc1", "melting point", "149 to 151 °C"],
  ["N#CCCc1cc(C(=O)O)cc(S(N)(=O)=O)c1Oc1ccccc1", "melting point", "259 to 262 °C"],
  ["COC(=O)/C=C/c1ccc(OC2Cc3ccccc3C2)cc1", "melting point", "115 to 116 °C"],
  ["Cc1ccc(S(=O)(=O)CCCc2c[nH]c([N+](=O)[O-])n2)cc1", "melting point", "108 to 111 °C"],
  ["CC(C)(C)OC(=O)[C@@H]1CS[C@H](c2ccccc2F)N1C(=O)CNC(=O)Nc1cccc(CC(=O)O)c1", "melting point", "110 °C"],
  ["O=[N+]([O-])c1ccc(C2OCCO2)cc1", "melting point", "88 to 92 °C"],
  ["Cc1ccc(-n2nc(C(C)(C)C)cc2NC(=O)Nc2ccc(OCC(=O)N3CCOCC3)c3ccccc23)cc1", "melting point", "240 to 241 °C"],
  ["C#CCn1c(C(F)(F)F)c(CO)oc1=O", "melting point", "64 °C"],
  ["O=C(NCCC12CCC(=O)N1C(=O)CC2)OCc1ccccc1", "melting point", "118 to 120 °C"],
  ["O=C(CCCCCN1CCN(c2cccc3c2CCC3)CC1)N1Cc2ccccc2C1", "melting point", "112 °C"],
  ["COc1ccc(-c2c3c(c(C)c4ccc(OC)cc24)C(=O)NC3)cc1", "melting point", "235 to 237 °C"],
  ["Cc1nc2sc(S(N)(=O)=O)cc2c(=O)n1-c1ccccc1Cl", "melting point", "251 °C"],
  ["CN(C)Cc1cccc(-c2cc3c(Nc4ccc(F)c(Cl)c4)ncnc3[nH]2)c1", "melting point", "218 to 220 °C"],
  ["CC(=O)NCc1ccc(CN2CCN(c3ccc(N)cc3)CC2)cc1", "melting point", "198 to 200 °C"],
  ["O=c1cc(C(F)(F)C(F)(F)F)nc[nH]1", "melting point", "122 to 126 °C"],
  ["O=C(O)C1CC2CCCCC2CN1C(S)c1nn[nH]n1 (stereo unspecified)", "melting point", "165 to 172 °C"],
  ["CCCn1nc(C)c(C(=O)O)c1Cc1ccc(-c2ccccc2-c2nnn[nH]2)cc1", "melting point", "240 to 242 °C"],
  ["Cc1noc2cc(OC3SCC(O)C(O)C3O)ccc12 (stereo unspecified)", "melting point", "148 to 161 °C"],
  ["CC(C)NCC(O)COc1cccc2c1CC1OC1C2 (stereo unspecified)", "melting point", "106 to 110 °C"],
  ["Cc1cc(S(=O)(=O)N2CCCCC2)c(O)c2c1CCC2=O", "melting point", "188 to 189 °C"],
  ["O=C(Cc1ccccc1F)c1ccc(I)cc1", "melting point", "112 to 114 °C"],
  ["O=S(=O)(Cc1ccccc1)c1c(Cl)nc(Cl)nc1Cl", "melting point", "160 to 162 °C"],
  ["CCC(C)(C)Nc1c(NCc2cc(C)cc(C)c2)c(=O)c1=O", "melting point", "222 to 224 °C"],
  ["Cc1ccc(-c2c(Cl)nc(-c3ccccc3)nc2Cl)cc1", "melting point", "165 to 166 °C"],
  ["CC(=O)OC1CSC(OC(=N)C(Cl)(Cl)Cl)C(OC(C)=O)C1OC(C)=O (stereo unspecified)", "melting point", "110 °C"],
  ["O=C1c2ccccc2C(=O)c2c(NC(=O)C3CC3)ccc(NC(=O)C3CC3)c21", "melting point", "> 200 °C"],
  ["O=C(Cn1nnc2cccnc21)Nc1ccc(-n2nc(C(F)(F)F)cc2C2CC2)cc1", "melting point", "206 to 209 °C"],
  ["S=C(NCCc1ccccc1)N1CCN(c2cnccn2)CC1", "melting point", "162 to 163 °C"],
  ["CCOc1nn(-c2ccccn2)cc1CCCOc1ccc(CCC(=O)O)cc1OC", "melting point", "92 to 93 °C"],
  ["CCCc1c(C(OC)OC)cc([N+](=O)[O-])c(OC)c1OC", "melting point", "52.1 to 54 °C"],
  ["COc1ccc(C(Cn2cc[nH]c2=O)=NO)cc1OC1CCCC1", "melting point", "191 °C"],
  ["CSc1ccc(-c2nn(CC3CC3)c(=S)cc2-c2ccc(F)cc2)cc1", "melting point", "136 °C"],
  ["CC(=O)OC1CSC(Sc2ccc3ccccc3c2)C(OC(C)=O)C1OC(C)=O (stereo unspecified)", "melting point", "151 °C"]
]}

---

parameter-measured: melting point

{"columns": ["molecule", "parameter-measured", "result"],
 "data": [
  ["CC(C)Oc1ccc2c(c1)N(C)C(=O)N(c1ccc(CC(=O)O)cc1)S2(=O)=O", "melting point", "232 to 233 °C"],
  ["COc1ccc(Sc2c([N+](=O)[O-])ccc(Cl)c2C(=O)O)cc1", "melting point", "154 to 157 °C"],
  ["CCNC(=O)Nc1ccc(-c2sc3c(c2CN(C)CCOCCOCC)c(=O)n(-c2ccccc2)c(=O)n3Cc2c(F)cccc2F)cc1", "melting point", "230 to 233 °C"],
  ["NC(=O)N1CC(Oc2ccc(Cl)cc2)C1", "melting point", "187 to 188 °C"],
  ["COc1cc(CNC(=O)c2ccc3n2Cc2ccccc2N(C(=O)c2ccc(-c4ccccc4C)c(C)c2)C3)cc(OC)c1", "melting point", "183 to 184 °C"],
  ["COc1cc(C(=O)O)c(-c2c(C(=O)O)cc(OC)c3c2OCO3)c(OC)c1OC", "melting point", "258 to 259 °C"],
  ["O=C(O)c1ncncc1Br", "melting point", "200 °C"],
  ["O=C(O)c1nc2ccccc2n(Cc2ccccc2)c1=O", "melting point", "149 to 150 °C"],
  ["O=C1N(Cc2ccc(C(F)(F)F)o2)c2ccccc2C12COc1cc3c(cc12)CCO3 (stereo not given)", "melting point", "64 to 65 °C"],
  ["COC(=O)CCCc1cc2nc(Cl)ccc2n1S(=O)(=O)c1ccc2nc(N)sc2c1", "melting point", "85 to 90 °C"],
  ["Cn1c(/C=C/[N+](=O)[O-])cc2cccc(F)c21", "melting point", "153 to 156 °C"],
  ["O=C(NCCCCC1CCSS1)N1CCSCC1 (stereo not given)", "melting point", "80 to 81 °C"],
  ["COC(=O)C=Cc1ccc(-n2c(C)ccc2C)cc1", "melting point", "73 to 75 °C"],
  ["CN1CC(OC(=O)c2ccccc2)N(N2CC=C(C(C)(C)C)O2)C1=O (stereo not given)", "melting point", "165 to 166 °C"],
  ["O=C(O)C=C1CCCCC1Cc1ccccc1 (racemic)", "melting point", "98 to 100 °C"],
  ["O=C(Nc1ccccc1)N1C(=S)C2(CCCCC2)NC12CCCCC2", "melting point", "143 to 144 °C"],
  ["O=C(O)c1cn([C@@H]2C[C@@H]2F)c2c(F)c(N3C[C@@H]4CCCN[C@@H]4C3)c(F)cc2c1=O", "melting point", "271 to 273 °C"],
  ["COc1ccc(-c2cnc(C#N)nc2)cc1OC1CCCC1", "melting point", "121 to 123 °C"],
  ["CCOC(=O)N1C=CC(c2ccc(F)cc2)C(C(=O)OC)=C1 (stereo not given)", "melting point", "83 to 85 °C"],
  ["O=c1[nH]c2ccc3c(c2[nH]1)OC(CO)CC3 (stereo not given)", "melting point", "240 °C"],
  ["Clc1ccc(CO[C@H]2CO[C@@H](c3ccccc3)OC2)cc1", "melting point", "116 to 117 °C"],
  ["O=C1C=C(Nc2ccccc2F)CCC1", "melting point", "116 to 118 °C"],
  ["CCc1cc(N)cc(CC)n1", "melting point", "133 to 137 °C"],
  ["COc1ccc(CCOc2ccnc(-c3cccc(C(=O)O)c3)n2)cc1OC", "melting point", "193 to 194 °C"],
  ["O=C(NCc1ccccc1)c1ccnc(NC(=O)c2cc(F)cc(F)c2)c1", "melting point", "185 to 187 °C"]
]}
